hERG current change (%, negative = inhibition) at 10uM by entry:
# TARGET OR SYSTEM: human ether-à-go-go-related gene (hERG) potassium channel (human, UniProt Q12809);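 note: peak tail current of the secondary pulse compared with the same well before compound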
# Sequence (Q12809 whole entry, looked up): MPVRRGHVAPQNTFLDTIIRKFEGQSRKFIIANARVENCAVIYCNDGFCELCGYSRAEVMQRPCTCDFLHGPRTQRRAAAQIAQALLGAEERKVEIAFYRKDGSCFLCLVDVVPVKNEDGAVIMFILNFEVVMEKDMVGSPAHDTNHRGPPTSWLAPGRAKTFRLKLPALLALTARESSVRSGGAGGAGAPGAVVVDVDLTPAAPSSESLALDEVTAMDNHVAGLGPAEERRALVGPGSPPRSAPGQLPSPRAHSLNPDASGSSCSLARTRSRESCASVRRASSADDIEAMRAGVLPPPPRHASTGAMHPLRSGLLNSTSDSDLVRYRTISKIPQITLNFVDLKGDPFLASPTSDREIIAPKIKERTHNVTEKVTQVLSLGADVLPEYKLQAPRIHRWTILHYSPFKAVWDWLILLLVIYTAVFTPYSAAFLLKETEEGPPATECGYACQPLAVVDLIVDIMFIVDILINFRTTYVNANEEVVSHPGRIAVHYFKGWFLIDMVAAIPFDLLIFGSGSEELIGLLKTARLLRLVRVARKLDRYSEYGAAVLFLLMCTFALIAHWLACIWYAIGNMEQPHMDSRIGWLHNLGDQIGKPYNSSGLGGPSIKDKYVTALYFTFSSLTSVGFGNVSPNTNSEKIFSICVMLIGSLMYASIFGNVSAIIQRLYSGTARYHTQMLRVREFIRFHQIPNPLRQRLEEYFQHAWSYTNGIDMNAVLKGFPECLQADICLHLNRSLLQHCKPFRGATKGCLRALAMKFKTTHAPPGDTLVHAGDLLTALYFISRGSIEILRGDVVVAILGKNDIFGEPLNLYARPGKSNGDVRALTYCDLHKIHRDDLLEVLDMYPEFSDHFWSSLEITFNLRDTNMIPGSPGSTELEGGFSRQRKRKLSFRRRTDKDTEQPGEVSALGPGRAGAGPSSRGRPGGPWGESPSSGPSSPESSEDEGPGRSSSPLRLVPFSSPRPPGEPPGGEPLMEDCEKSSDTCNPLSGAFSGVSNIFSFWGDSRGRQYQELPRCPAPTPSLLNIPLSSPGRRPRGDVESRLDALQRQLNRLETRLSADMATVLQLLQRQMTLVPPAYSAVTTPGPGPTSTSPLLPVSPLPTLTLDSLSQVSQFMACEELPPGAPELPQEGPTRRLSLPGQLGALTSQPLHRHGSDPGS
# ASSAY OVERVIEW: primary screen, population patch clamp on CHO cells stably expressing hERG; higher = less effect of the substance
The campaign covered roughly 310,000 compounds. About 14,000 (4.5%) showed an effect of 50% or more. The effect is printed as a negative number. The entries come from a sample that favours strong results as a whole.
Output spec: scalar in %, unitless text.

# annotated cases, reported hERG current change (%, negative = inhibition) at 10uM shown
| COMPOUND | ENDPOINT UNIT | REPORTED RESULT |
| --- | --- | --- |
| COc1cccc(OC)c1OCCCCN1CCCCC1.O=C(O)C(=O)O | % | -2.55 |
| O=C(Cn1nc(CNc2ccc(Cl)cc2)[n+]2c1CCCCC2)c1ccccc1.[Br-] | % | 9.17 |

# compound `COc1cccc(OC)c1OCCCCN1CCCC1` ; its hERG current change (%, negative = inhibition) at 10uM = -2.47

# compound `Cc1ccc(C(C)C)c(OCc2nn(CC(=O)c3ccc(OC(F)F)cc3)c3[n+]2CCCCC3)c1.[Br-]` ; its hERG current change (%, negative = inhibition) at 10uM = -72.5

# compound `O=C(Cn1nc(-c2nn(CC(=O)c3ccccc3)c3[n+]2CCCCC3)[n+]2c1CCCCC2)c1ccccc1.[Br-]` ; its hERG current change (%, negative = inhibition) at 10uM = 12.8
